system: MS2 coat protein; test: apparent KD of MS2 coat protein; designed switch direction (-1 OFF switch, 1 ON switch): 1; higher = weaker reporter binding; details: Eterna round: R95; input ligand: FMN 200 uM

biosequence	apparent KD of MS2 coat protein
AUUUAACAAGCUUUUUGCUCGUCUUAUAAACAUGAGGAUCACCCAUGUAAUAGCGUGAGAGUAAAUAAUUUAAUUAU [JMF 99] (puzzle: Sensor for hsa-mir-208a)	13.7 nM
AUGUGGAAGCCACAGGAUAUACUAGGGUACACAUGAGGAUCACCCAUGUGCGGCUAAAAGUGCUAGUAGAAGGGUGGUAAAGAAA [Diartire] (puzzle: Same State 2)	13.8 nM
GCCGGACAUGAGGAUCACCCAUGUCCUCACUAUACAGGAUAUCGGGUAGGAUCCCUACGGCGAGAAGGGUAUAAAA [Inarquat] (puzzle: Same State 1)	34.2 nM
GGUCCGGCCUGAGCUGGACCGAAGCAUGUACAUGAGGAUCACCCAUGUUCAUGUGCAGGCUUUUUGCUCGUCUUGUG [JL-shm-2.05 JL mod] (puzzle: Sensor for hsa-mir-208a)	91.7 nM
GCCACACAUGAGGAUCACCCAUGUAAUUACAUGGGAGGAUAUCAGUGCUCGAAAGAGCACUGAGAAGGCCUGUGGC [SS1 - Omei A v3] (puzzle: Same State 1)	134 nM

----------
system: MS2 coat protein; assay: apparent KD of MS2 coat protein; higher = weaker reporter binding; conditions: Eterna round: R107; input ligand: tryptophan 2.4 mM
apparent KD of MS2 coat protein overview
metric: apparent KD of MS2 coat protein (µM)

biosequence	assayResult
GGUGGCGGGACUGAUACCAGCCACCACCGAUAGACCACAUGAGGAUCACCCAUGUUGGGUGGCCCUUGGCAGCAGUCUUGCGUCG [#1 Same State - Theophylline B Attempt #16 (HarryS)]	0.323
AAUUUAAACGGAAGGAGCGUCACUUAAUAUCAACAUGAGGAUCACCCAUGUACGGGUUGUAGACAGGUAGGUCGCCGUCAUUUGA [#15 Same State - Arginine B]	0.0535
CAUGGGUGGUAUCACCCAUCCAUAGGUGAUACCAGCAUCGAAAGAUGCCCUUGGCAGCACCAACAUGAGGAUCACCCAUGUAAUA [(M)'-(T)'-(M)''-(T1)-(T2)-(M1)-(M2)_Design2]	0.354
GCUGUUGCGGUGAGGUAUCCGGCUGUGGAAGGAGCGCGGAAUGCCGCAGGUAGGUCGCCACAUGAGGAUCACCCAUGUCGAUAUA [Atzalama]	0.0212
AAUGAUGCGAUCUACAGUCGAGGAUUCGAUACCAGCAACGGGCGUUGCCCUUGGCAGCGAGCUACAUGAGGAUCACCCAUGUUAC [theeternabot_exclusion_MS2_Theo_A_45]	0.0194

----------
tested on: K4 kissing-loop RNA reporter; test: apparent KD of K4 kissing-loop reporter; higher = weaker reporter binding; details: Eterna round: R107; input ligand: tryptophan 2.4 mM;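 further: bound reporter read as fluorescence of individual clusters on recovered sequencing chips by microscopy, with normalized cluster intensities fitted with a binding model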
Note to self: values exactly at 500 nM are Y. So apparent KD of K4 kissing-loop reporter at or above 500 nM is Y, below is N.

biosequence	experimentalTarget	className
GUGCGCGGUGCGGCCGCCACUCGGAUGCGAGUGAUGUUCGCGGGACGGACGCAAGUCCGUCAUUCGAGGACCGGGCAUGGCUGCA [#2 Same State - Tryptophan B Attempt #6 (HarryS)]	K4 kissing-loop RNA reporter	N
GGAGUUACCUGGGAUACCAGUCGGAGUCCUAGAGCUCGGAGUGAUGUUCUGGGAUGUUUCGGCCCUUGGCAGCUCUGGGACUCCC [#2 Exclusion - Theophylline B Attempt #11 (HarryS)]	K4 kissing-loop RNA reporter	Y
UGCAUGCUUGGAGUGAUGUUCCAAGAUGAUACCAGUGCUUUUUUGCACCCUUGGCAGCGUCUGAUUGCAUGCACGUCGAAAGACG	K4 kissing-loop RNA reporter	Y
CCGAGCUACAGCGAUACCAGUGUGGAGUGAUGUUCCCUGGUCCGGGCUGUUGUUCCCUUGCGCCCUUGGCAGCGCAGAAGCAGCU [Exclusion Theophylline B GF 14]	K4 kissing-loop RNA reporter	N
GUCCCGAGUGAUGUUCGGGUCGUUUGGGAAGGAGCGCCCGGAAGGGCAGGUAGGUCGCCCGGACCCUGCAGGUAACUGUUGGGCC [#2 Same State - Arginine A Attempt #19 (HarryS)]	K4 kissing-loop RNA reporter	N

Origin of values: the supplement of paper PMC9170038
